B1: CPEB3 Ribozyme (parent)
chain: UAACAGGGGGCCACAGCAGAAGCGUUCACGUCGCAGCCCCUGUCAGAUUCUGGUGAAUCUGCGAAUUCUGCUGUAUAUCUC

# Variants of: B1
# procedure-text: self-cleavage, relative activity (ratio to wild type); higher = more cleavage; in vitro, sequencing
Respond with criterion met for self-cleavage values of 0.4 and above, criterion not met for values below.

| mutant | discrete-label |
| --- | --- |
| C40U U66C | criterion not met |
| A18G U69C | criterion met |
| U74C U80C | criterion met |
| G8C A57G | criterion met |
| A13G A47U | criterion not met |
| G30A U60A | criterion not met |
| U25C A45C | criterion not met |
| U58C C81U | criterion met |

Q) Hello, I need to know if C71A U78G has measured self-cleavage not below 0.4. Thanks!
A) criterion not met

Q) Hello, I need to know if A21U U80A has measured self-cleavage not below 0.4. Thanks!
A) criterion met

Q) Hello, I need to know if G46U U74A has measured self-cleavage not below 0.4. Thanks!
A) criterion met

Q) Hello, I need to know if C11U U72C has measured self-cleavage not below 0.4. Thanks!
A) criterion met

Q) Hello, I need to know if G33A U80C has measured self-cleavage not below 0.4. Thanks!
A) criterion not met

Q) Hello, I need to know if A5C C29U has measured self-cleavage not below 0.4. Thanks!
A) criterion met
